Origin of the recorded values: patent US10329289B2

- target under test: UniProt P08173
- experiment description: human FLIPR-based M4 PAM assay (Ca2+ mobilization, CHO-K1 cells with human M4 receptor and Gαqi5)
- condition set: acetylcholine at 20% of maximum response, read-out: M4 PAM IP
pEC50: −log10 of the molar value.
outcome measure: pEC50

{"molecule": "Cc1cc2c(nc1N1CC[C@@H](Oc3cccc(C#N)c3)[C@@H](F)C1)CN(C)C2=O", "recorded measurement": 7.28}
{"molecule": "Cc1cc2c(nc1N1CCC(Oc3ccc4c(c3)OCC4)CC1)[C@@H](CO)N(C)C2=O", "recorded measurement": 7.80}
{"molecule": "COc1ccc(OC2CCN(c3nc4c(cc3C)C(=O)N(CCN(C)C)C4)CC2)cn1", "recorded measurement": 6.49}
{"molecule": "Cc1cc2c(nc1N1CCC(OC[C@@H]3C[C@H]3C(F)(F)F)CC1)CNC2=O (single isomer, unassigned)", "recorded measurement": 6.20}
{"molecule": "Cc1cc2c(nc1N1CCC(Oc3ccc4c(c3)CCOC4)CC1)[C@@H](CO)N(C)C2=O [Example 349A]", "recorded measurement": 7.66}
{"molecule": "Cc1cncc(OC2CCN(c3nc4c(cc3C)C(=O)NC4)CC2)c1", "recorded measurement": 7.08}
{"molecule": "Cc1cc2c(nc1N1CCC(Oc3ccc(C#N)cc3)CC1)CNC2=O", "recorded measurement": 6.64}
{"molecule": "Cc1cc2c(nc1N1CCC(Oc3ccc4[nH]ccc4c3)CC1)CNC2=O", "recorded measurement": 7.55}
{"molecule": "Cc1cc2c(nc1N1CCC(Oc3cnc4c(c3)COC4)CC1)CNC2=O", "recorded measurement": 7.21}
{"molecule": "COc1ccc(OC2CCN(c3nc4c(cc3C)C(=O)N([C@H](C)CO)C4)CC2)cn1 (single isomer, unassigned) [Example 264B]", "recorded measurement": 6.97}
{"molecule": "Cc1cc2c(nc1N1CCC(Oc3ccc4c(cnn4C)c3)CC1)CN(CCO)C2=O [Example 239A]", "recorded measurement": 7.07}
{"molecule": "COc1ccc(OC2CCN(c3nc4c(cc3C)C(=O)N(C(C)C)C4)CC2)cn1", "recorded measurement": 7.12}
{"molecule": "Cc1cc2c(nc1N1CCC(Oc3cnn(C)c3)CC1)CNC2=O [Example 139]", "recorded measurement": 6.97}
{"molecule": "Cc1cncc(OC2CCN(c3nc4c(c(C)c3C)C(=O)NC4)CC2)c1 [Example 220A]", "recorded measurement": 7.08}
{"molecule": "Cc1c(N2CC[C@@H](OCC3(C)CC3)[C@@H](F)C2)nc2c(c1C)C(=O)N(C)[C@H]2CO [Example 342A]", "recorded measurement": 6.05}
{"molecule": "Cc1cc2c(nc1N1CCC(Oc3ccc4c(c3)CCCO4)CC1)CNC2=O", "recorded measurement": 7.35}
{"molecule": "CCc1cc2c(nc1N1CCC(Oc3ccc4c(cnn4C)c3)CC1)[C@H](CO)N(C)C2=O", "recorded measurement": 5.42}

----------
- target under test: human M4 muscarinic acetylcholine receptor (Homo sapiens)
- Construct: expressed in transfected cells; host or cells: CHO-K1
- Sequence (P08173 1-479): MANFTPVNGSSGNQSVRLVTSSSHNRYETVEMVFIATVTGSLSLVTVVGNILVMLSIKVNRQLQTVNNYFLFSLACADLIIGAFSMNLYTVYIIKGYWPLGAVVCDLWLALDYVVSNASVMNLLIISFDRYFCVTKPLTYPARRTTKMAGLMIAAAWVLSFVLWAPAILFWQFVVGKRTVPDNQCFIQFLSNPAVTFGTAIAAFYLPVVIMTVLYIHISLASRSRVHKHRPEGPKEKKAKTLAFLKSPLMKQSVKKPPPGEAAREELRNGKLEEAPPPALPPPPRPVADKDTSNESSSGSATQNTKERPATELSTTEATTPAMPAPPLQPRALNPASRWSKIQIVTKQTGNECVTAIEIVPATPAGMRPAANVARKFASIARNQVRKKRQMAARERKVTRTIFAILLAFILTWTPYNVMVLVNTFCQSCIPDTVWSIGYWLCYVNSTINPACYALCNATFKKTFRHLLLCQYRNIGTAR
- experiment description: human FLIPR-based M4 PAM assay (Ca2+ mobilization, CHO-K1 cells with human M4 receptor and Gαqi5)
- Assay type: cell-based
- condition set: acetylcholine at 20% of maximum response, read-out: M4 PAM IP
pEC50: −log10 of the molar value.
pEC50 listing for selected compounds.

{"compound": "Cc1cc2c(nc1N1CC[C@H](Oc3cccc(C#N)c3)[C@@H](F)C1)CNC2=O [Example 20]", "target under test": "human M4 muscarinic acetylcholine receptor (Homo sapiens)", "pEC50": 7.08}
{"compound": "Cc1c(N2CCC(Oc3ccc4c(c3)COC4)CC2)nc2c(c1C)C(=O)N([C@H](C)CO)C2 [Example 266C]", "target under test": "human M4 muscarinic acetylcholine receptor (Homo sapiens)", "pEC50": 7.19}
{"compound": "Cc1cc2c(nc1N1CCC(Oc3ccc4c(c3)CO[C@@H]4C)CC1)CNC2=O [Example 199A]", "target under test": "human M4 muscarinic acetylcholine receptor (Homo sapiens)", "pEC50": 7.22}
{"compound": "Cc1cc2c(nc1N1CCC(Oc3ccccc3F)CC1)CNC2=O [Example 75]", "target under test": "human M4 muscarinic acetylcholine receptor (Homo sapiens)", "pEC50": 6.63}
{"compound": "Cc1c(N2CCC(Oc3ccc4c(c3)CCOC4)CC2)nc2c(c1C)C(=O)NC2 [Example 336]", "target under test": "human M4 muscarinic acetylcholine receptor (Homo sapiens)", "pEC50": 6.74}
{"compound": "Cc1cc2c(nc1N1CCC(Oc3cnc4[nH]ncc4c3)CC1)CNC2=O [Example 206]", "target under test": "human M4 muscarinic acetylcholine receptor (Homo sapiens)", "pEC50": 6.23}
{"compound": "Cc1cc2c(nc1N1CCC(Oc3ccccc3)CC1)[C@H](CO)N(C)C2=O [Example 275]", "target under test": "human M4 muscarinic acetylcholine receptor (Homo sapiens)", "pEC50": 5.40}
{"compound": "COc1ccc(OC2CCN(c3nc4c(cc3C)C(=O)NC4=O)CC2)cn1 [Example 297]", "target under test": "human M4 muscarinic acetylcholine receptor (Homo sapiens)", "pEC50": 7.66}
{"compound": "CC(=O)N1Cc2ccc(OC3CCN(c4nc5c(cc4C)C(=O)NC5)CC3)cc2C1 [Example 294]", "target under test": "human M4 muscarinic acetylcholine receptor (Homo sapiens)", "pEC50": 6.69}
{"compound": "CCc1cc2c(nc1N1CC[C@@H](Oc3ccc4c(c3)COC4)[C@@H](F)C1)CNC2=O [Example 214]", "target under test": "human M4 muscarinic acetylcholine receptor (Homo sapiens)", "pEC50": 7.03}
{"compound": "CCc1cc2c(nc1N1CCC(OCC3(C)CC3)CC1)CNC2=O [Example 229]", "target under test": "human M4 muscarinic acetylcholine receptor (Homo sapiens)", "pEC50": 7.44}
{"compound": "Cc1cc2c(nc1N1CCC(Oc3ccc4c(cnn4C)c3)CC1)CNC2=O [Example 4]", "target under test": "human M4 muscarinic acetylcholine receptor (Homo sapiens)", "pEC50": 7.31}
{"compound": "CCOc1ccc(OC2CCN(c3nc4c(cc3C)C(=O)N(C)[C@@H]4CO)CC2)cn1 [Example 286]", "target under test": "human M4 muscarinic acetylcholine receptor (Homo sapiens)", "pEC50": 7.42}
{"compound": "Cc1cc2c(nc1N1CCC(Oc3ccc4c(c3)C[C@@H](O)C4)CC1)CNC2=O (single isomer, unassigned) [Example 324A]", "target under test": "human M4 muscarinic acetylcholine receptor (Homo sapiens)", "pEC50": 7.66}
{"compound": "COc1ccc(OC2CCN(c3nc4c(cc3C)C(=O)N(CCO)C4CO)CC2)cn1 (stereo not shown) [Example 375]", "target under test": "human M4 muscarinic acetylcholine receptor (Homo sapiens)", "pEC50": 7.16}
{"compound": "Cc1cc2c(nc1N1CCC(Oc3ccc4c(c3)C(C)(C)CCO4)CC1)CNC2=O [Example 125]", "target under test": "human M4 muscarinic acetylcholine receptor (Homo sapiens)", "pEC50": 6.21}
{"compound": "CCOc1ccc(OC2CCN(c3nc4c(cc3C)C(=O)N[C@H]4CCO)CC2)cn1 [Example 234A]", "target under test": "human M4 muscarinic acetylcholine receptor (Homo sapiens)", "pEC50": 6.42}
{"compound": "Cc1cc2c(nc1N1CCC(Oc3ccccc3)CC1)CN(C)C2=O [Example 240]", "target under test": "human M4 muscarinic acetylcholine receptor (Homo sapiens)", "pEC50": 7.40}
{"compound": "COc1ccc(OC2CCN(c3nc4c(cc3C)C(=O)N(C[C@@H](O)C(F)(F)F)C4)CC2)cn1 [Example 318]", "target under test": "human M4 muscarinic acetylcholine receptor (Homo sapiens)", "pEC50": 6.81}
{"compound": "Cc1c(N2CCC(Oc3ccc4c(c3)C[C@H](O)C4)CC2)nc2c(c1C)C(=O)NC2 [Example 334A]", "target under test": "human M4 muscarinic acetylcholine receptor (Homo sapiens)", "pEC50": 7.17}
{"compound": "Cc1cc2c(nc1N1CCC(OCC3(CO)CC3)CC1)CNC2=O [Example 312]", "target under test": "human M4 muscarinic acetylcholine receptor (Homo sapiens)", "pEC50": 6.19}
{"compound": "Cc1c(N2CC[C@@H](Oc3ccc4c(c3)COC4)[C@@H](F)C2)nc2c(c1C)C(=O)N(CCO)C2 [Example 261]", "target under test": "human M4 muscarinic acetylcholine receptor (Homo sapiens)", "pEC50": 7.41}
{"compound": "Cc1cc2c(nc1N1CCC(OCc3ccccn3)CC1)CNC2=O [Example 205A]", "target under test": "human M4 muscarinic acetylcholine receptor (Homo sapiens)", "pEC50": 5.25}
{"compound": "COc1ccc(OC2CCN(c3nc4c(cc3C)C(=O)NC4(C)C)CC2)cn1 [Example 288]", "target under test": "human M4 muscarinic acetylcholine receptor (Homo sapiens)", "pEC50": 5.75}
{"compound": "Cc1cc2c(nc1N1CCC(Oc3ccc4nn(C)cc4c3)CC1)CNC2=O [Example 202A]", "target under test": "human M4 muscarinic acetylcholine receptor (Homo sapiens)", "pEC50": 7.02}
{"compound": "COC(=O)CN1Cc2nc(N3CCC(OCC4(C)CC4)CC3)c(C)c(C)c2C1=O [Example 256]", "target under test": "human M4 muscarinic acetylcholine receptor (Homo sapiens)", "pEC50": 7.07}
{"compound": "Cc1cc2c(nc1N1CCC(Oc3cnc4c(c3)COC4)CC1)[C@@H](CO)N(C)C2=O [Example 278A]", "target under test": "human M4 muscarinic acetylcholine receptor (Homo sapiens)", "pEC50": 7.12}
{"compound": "COc1ccc(OC2CCN(c3nc4c(cc3C)C(=O)N(C)C4(C)C)CC2)cn1 [Example 17]", "target under test": "human M4 muscarinic acetylcholine receptor (Homo sapiens)", "pEC50": 5.93}
{"compound": "Cc1cc2c(nc1N1CCC(Oc3ccc4c(c3)CCO4)CC1)CNC2=O [Example 109]", "target under test": "human M4 muscarinic acetylcholine receptor (Homo sapiens)", "pEC50": 7.70}
{"compound": "COc1ccc(OC2CCN(c3nc4c(cc3C)C(=O)N[C@@H]4CO)CC2)cn1 (single isomer, unassigned) [Example 271B]", "target under test": "human M4 muscarinic acetylcholine receptor (Homo sapiens)", "pEC50": 7.42}
{"compound": "CCC1c2nc(N3CCC(Oc4ccc(OC)nc4)CC3)c(C)cc2C(=O)N1CC (stereo not shown) [Example 233]", "target under test": "human M4 muscarinic acetylcholine receptor (Homo sapiens)", "pEC50": 6.40}
{"compound": "Cc1cc2c(nc1N1[C@@H]3CC[C@H]1C[C@@H](Oc1ccc4c(cnn4C)c1)C3)CNC2=O [Example 100]", "target under test": "human M4 muscarinic acetylcholine receptor (Homo sapiens)", "pEC50": 5.99}
{"compound": "CCc1cc2c(nc1N1CCC(Oc3ccc4c(c3)CCOC4)CC1)CN(CCO)C2=O [Example 266F]", "target under test": "human M4 muscarinic acetylcholine receptor (Homo sapiens)", "pEC50": 7.24}
{"compound": "CCc1cc2c(nc1N1CCC(Oc3cccc(C#N)c3)CC1)CNC2=O [Example 93A]", "target under test": "human M4 muscarinic acetylcholine receptor (Homo sapiens)", "pEC50": 6.83}
